Target: rat TRPM8 (Rattus norvegicus)
Construct: expressed in transfected cells; host or cells: HEK293 (human embryonic kidney), stably transfected
Sequence (Q8R455 whole entry): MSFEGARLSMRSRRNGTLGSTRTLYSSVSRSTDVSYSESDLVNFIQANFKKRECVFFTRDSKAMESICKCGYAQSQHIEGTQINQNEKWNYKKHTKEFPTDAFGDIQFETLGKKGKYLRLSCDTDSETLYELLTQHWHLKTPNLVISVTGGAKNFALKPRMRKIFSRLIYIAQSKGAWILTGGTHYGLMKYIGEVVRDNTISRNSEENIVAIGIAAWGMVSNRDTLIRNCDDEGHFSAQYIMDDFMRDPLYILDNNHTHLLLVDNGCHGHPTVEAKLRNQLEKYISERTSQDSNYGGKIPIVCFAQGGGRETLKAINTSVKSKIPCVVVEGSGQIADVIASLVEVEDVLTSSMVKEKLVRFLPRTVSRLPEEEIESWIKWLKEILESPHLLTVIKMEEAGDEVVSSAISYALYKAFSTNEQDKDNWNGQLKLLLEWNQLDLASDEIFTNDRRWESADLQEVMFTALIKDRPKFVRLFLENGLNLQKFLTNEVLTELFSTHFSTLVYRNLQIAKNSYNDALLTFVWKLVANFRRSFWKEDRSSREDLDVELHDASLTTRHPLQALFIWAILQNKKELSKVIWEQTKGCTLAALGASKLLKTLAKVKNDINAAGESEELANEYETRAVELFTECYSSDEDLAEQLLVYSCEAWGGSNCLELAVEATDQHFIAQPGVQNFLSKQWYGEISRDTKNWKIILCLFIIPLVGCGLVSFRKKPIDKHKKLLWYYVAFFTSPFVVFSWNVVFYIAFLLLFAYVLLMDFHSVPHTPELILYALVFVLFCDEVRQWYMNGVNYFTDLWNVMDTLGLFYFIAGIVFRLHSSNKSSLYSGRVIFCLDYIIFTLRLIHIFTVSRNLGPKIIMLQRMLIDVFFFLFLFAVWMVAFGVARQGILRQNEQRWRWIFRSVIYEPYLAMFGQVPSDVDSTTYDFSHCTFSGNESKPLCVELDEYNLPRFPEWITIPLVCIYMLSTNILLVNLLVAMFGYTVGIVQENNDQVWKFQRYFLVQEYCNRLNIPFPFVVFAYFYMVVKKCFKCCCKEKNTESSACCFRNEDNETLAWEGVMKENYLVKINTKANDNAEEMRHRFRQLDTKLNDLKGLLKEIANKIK
Test: Whole-cell patch-clamp in HEK293 cells expressing rat TRPM8
Assay type: cell-based
Settings: holding potential −60 mV; 100 μM menthol
measurement name: IC50 (nM)

P: C[C@@H]1C(=O)N(C[C@@H](Cc2ccccc2)N(Cc2ccccc2)Cc2ccccc2)[C@]1(Cc1ccccc1)C(=O)OCc1ccccc1
Q: C[C@H]1C(=O)N(C[C@@H](Cc2ccccc2)N(Cc2ccccc2)Cc2ccccc2)[C@@]1(Cc1ccccc1)C(=O)OCc1ccccc1
Of the two listed items, which has the higher IC50? First: P Second: Q // respond with label for picked entry P
